Origin of measurements: ChEMBL document CHEMBL4296182

// Inhibition lookup, one value per entry
- Test system: Candida albicans
- EXPERIMENTAL_SETUP: 20 µM
- Description: Antifungal activity against Candida albicans ATCC 90028 (CO-ADD:FG_001); MIC in YNB media using NBS plates, by OD630
Measured potencies and affinities stand elsewhere.
Respond numerically; units are % and should not be typed.

Examples with answers:
In [3]: df
Out[3]:
                                   molecule  units_symbol  recorded_result
0              Oc1ccc(N/C(S)=N/c2ccccc2)cc1             %             4.77
1  Cc1ccc(/N=N/c2c(O)c3ccccc3[nH]c2=O)c(S(=O)(=O)N(C)C)c1             %            -0.31
2             O=C(O)/C(=C/c1ccccc1)c1ccccc1             %             8.14
3          O=C(Nc1ccc(Cl)cc1)Nc1cccc2nsnc12             %             11.3
4          O=C(/C=C/c1ccc(Cl)s1)c1ccc(Cl)s1             %             4.39

Look up and state reported Inhibition for Oc1ccccc1-n1c(-c2ccccc2)ccc1-c1ccccc1 11.1

Identify the reported Inhibition for the following entry. CC1=CC2C(C(O)CC3(C)C2CC(C)C32OCOC23COCO3)C2(C)C/C(=C/O)C(=O)C=C12 (centres undefined) 15.1

* * *

- Tested on: Cryptococcus neoformans
- EXPERIMENTAL_SETUP: Concentration 20 uM; ASSAY_TEST Inhibition of Fungal Growth; detection method Resazurin; Absorption (OD600-OD570); plate type 384well; NBS; CORNING #3640
- Description: Antifungal activity against Cryptococcus neoformans H99 ATCC 208821 (CO-ADD:FG_002); MIC in YNB media using NBS plates, by Resazurin OD(600-570)
Measured potencies and affinities stand elsewhere.
VALUE_TYPE: Inhibition (%)
Your answer is read as %, so omit the unit and give the number.

Consider the reported Inhibition for these compounds:
In [3]: df
Out[3]:
                                   compound  recorded_result
0            CN1CN(C)C(c2ccncc2)=C1c1ccncc1             -1.9
1  CCOC(=O)C1CC(C)=C(C)CC1C(=O)O (stereo unspecified)           -10.63
2                Cn1ncc2c(NCc3ccccc3)ncnc21            -9.92
3    COc1ccc(C(C)=O)cc1CO/N=C1\CSCc2ccccc21            -2.91
4  COc1cc(Cl)c(CC(=O)c2c[nH]c3ccccc23)cc1OC            -1.97

Identify the reported Inhibition for the following entry. Nc1ncnc2c1ncn2C1C=C(CO)C(O)C1O (stereo unspecified) -6.12

Supply Inhibition value. Item: CN1CCc2ccccc2C1Cc1ccccc1NC(=O)c1sc2ccccc2c1Cl (stereo unspecified) -3.5

* * *

- System: Klebsiella pneumoniae
- EXPERIMENTAL_SETUP: Concentration 20 uM; ASSAY_TEST Inhibition of Bacterial Growth; detection method Absorption (OD600); MEDIA CAMHB; plate type 384well; NBS; CORNING #3640; time 18 hr
- Description: Antibacterial activity against Klebsiella pneumoniae MDR ATCC 70063 (CO-ADD:GN_003); MIC in CAMBH media using NBS plates, by OD(600)
Results with a measured potency or affinity are listed apart.
Response field class: string, computed from recorded Inhibition by ranges L: < 4%; M: ≥ 4% and < 10%; H: ≥ 10%

>>> df
                                   molecule    experimental_system  discrete_label
0        O=C(c1ccccc1)c1ccccc1C(=O)c1ccccc1  Klebsiella pneumoniae               H
1  C#CC(C)OCC1CNC(=S)O1 (configuration not stated)  Klebsiella pneumoniae               L
2  S=c1c2nc[nH]c2ncn1CCSC1=NC=NC2=NC=NC21 (configuration not stated)  Klebsiella pneumoniae               M
3  Nc1ncnc2c1ncn2C1OC(CO)C(O)C1N (configuration not stated)  Klebsiella pneumoniae               L
4     COc1cc(O)c(C(=O)/C=C/c2ccccc2)c(OC)c1  Klebsiella pneumoniae               H
5         CC(=O)Nc1ccc(S(=O)(=O)N=S(C)C)cc1  Klebsiella pneumoniae               H

# bin lookup: classify COc1ccc2nc3cc(Cl)ccc3c(Nc3cc(C(C)C)c(O)cc3C)c2c1 by its Inhibition M

Could you tell me which band CCOC(=O)c1c(C)nc(C)c(C(=O)OCC)c1-c1ccc(OC)cc1 belongs to? L

Which Inhibition band matches CC1=NC(C)(C)CC2CCC(O)C12 (configuration not stated) ? H

* * *

Consider the following compounds and their measured Inhibition readings.
- Test system: Escherichia coli
- TEST_NAME: Antibacterial activity against Escherichia coli ATCC 25922 (CO-ADD:GN_001); MIC in CAMBH media using NBS plates, by Resazurin F(560/590)
- Type: functional
- EXPERIMENTAL_SETUP: Concentration 20 uM, ASSAY_TEST Inhibition of Bacterial Growth, detection method Resazurin, Fluorescence (ex560/em590), MEDIA CAMHB, plate type 384well, CORNING #3640, time 18 hr
Form entry: value (%) — number only.

Output measured Inhibition for this item: NC(=O)CCC(C(=O)O)N1C(=O)c2ccc(O)cc2C1=O (stereo not drawn) -2.7

Output measured Inhibition for this item: N#CC1C=Cc2c(ccc3ccccc23)N1C(=O)c1ccccc1 (stereo not drawn) 7.35

Write down Inhibition measured for item O=[N+]([O-])c1ccc(-c2ncc(-c3ccc(Br)cc3)o2)cc1 2.7

Return reported Inhibition. Input compound: Clc1nc(Oc2ccccc2)nc(-c2cn(-c3ccccc3)c3ccccc23)n1 6.07

* * *

# Inhibition per record follows
- System: Cryptococcus neoformans
- EXPERIMENTAL_SETUP: Concentration 20 uM; ASSAY_TEST Inhibition of Fungal Growth; detection method Resazurin; Absorption (OD600-OD570); plate type 384well; NBS; CORNING #3640
Entries with a potency or affinity are not part of this list.
Respond with the bare value in %.

Below, each entry is followed by its recorded Inhibition result.
>>> df
                                   molecule  recorded_result
0  C/C(=N\O)C1CC(CC(=O)O)C1(C)C (centres undefined)             -5.7
1  CC1CN(CCN2CC(C)N(C=O)CC2C)C(C)CN1C=O (centres undefined)            25.73
2                     O=CN/C=C\c1cc(O)ccc1O             7.81
3                      Sc1nc2ccccc2n2cccc12            -1.74
4      CCOc1ccc(NC(=O)Nc2cc(C(C)C)ccc2C)cc1            21.16

Note down Inhibition recorded for O=[N+]([O-])c1nc[nH]c1/C=C\c1ccccc1 10.56

Fill in reported Inhibition for this entry: CC(=O)CC[N+](C)(C)C.[I-] -9.72

Give the value of Inhibition reported for the following: CN(C)S(=O)(=O)Nc1ccccn1 -3.86

Give me measured Inhibition, please, for this molecule: CC1=C(C#N)C(C)(C)C(C#N)=C(C)N1 -14.16

* * *

- System: Staphylococcus aureus
- TEST_NAME: Antibacterial activity against Staphylococcus aureus MRSA ATCC 43300 (CO-ADD:GP_020); MIC in CAMBH media using NBS plates, by Resazurin F(560/590)
- Format: functional
- EXPERIMENTAL_SETUP: Concentration 20 uM, ASSAY_TEST Inhibition of Bacterial Growth, detection method Resazurin, Fluorescence (ex560/em590), MEDIA CAMHB, plate type 384well, CORNING #3640, time 18 hr
The entries below are paired with their reported Inhibition.
# value in %; strip the unit string

The cases that follow already have their Inhibition on record.
>>> df
                                   compound  value_type  units_symbol  recorded_result
0             CS(=O)(=O)Oc1ccc(Br)c2cccnc12  Inhibition             %            10.68
1  Oc1c(Cl)cc(Cl)cc1C1Nc2ccccc2-n2cccc21 (stereo unspecified)  Inhibition             %             8.71
2                        O=C(O)Cc1sc(O)nc1O  Inhibition             %             3.49
3       CC(C)COc1nc2c(c(=O)n(C)c(=O)n2C)n1C  Inhibition             %            -1.72

Consider the compound COc1ccc(NC2=CC(=S)NC(C)(C)C2)cc1 and give its recorded Inhibition. 11.18

Please list Inhibition recorded for the compound CC(=O)OC1COC(OC(C)=O)CO1 (stereo unspecified) -14.46

* * *

- System: Staphylococcus aureus
- TEST_NAME: Antibacterial activity against Staphylococcus aureus MRSA ATCC 43300 (CO-ADD:GP_020); MIC in CAMBH media using NBS plates, by Resazurin F(560/590)
- Format: functional
- EXPERIMENTAL_SETUP: Concentration 20 uM, ASSAY_TEST Inhibition of Bacterial Growth, detection method Resazurin, Fluorescence (ex560/em590), MEDIA CAMHB, plate type 384well, CORNING #3640, time 18 hr
Listed below: Inhibition values for each entry.
Write the number in % without appending the unit.

Example entries and their recorded answers appear below.
>>> df
                                   molecule    experimental_system  recorded_result
0  C[C@H](CCC(=O)O)[C@H]1CC[C@@]2(C)[C@@H]3C(=O)C[C@H]4C(C)(C)[C@@H](O)CC[C@]4(C)[C@H]3C(=O)C[C@]12C  Staphylococcus aureus             2.14
1             Nc1ccccc1-n1nc2ccc3ccccc3c2n1  Staphylococcus aureus            -2.24

For the molecule C=CCOc1c(CCC)cc(CCC)cc1C(N)=O , give its measured Inhibition value. 13.21

Return reported Inhibition. Input molecule: Cc1cc(O)cc2c1[C@H]1CC[C@]3(C)C(=O)CC[C@H]3[C@@H]1C=C2 24.45

Provide one value: measured Inhibition of COc1cnc(SC)nc1Nc1ccc(C#N)cc1 3.83

// fetch Inhibition given entry c1ccc(-c2nnc(-c3ccccn3)s2)nc1 3.28
